B1: Osa-1-4 twister ribozyme (parent)
chain: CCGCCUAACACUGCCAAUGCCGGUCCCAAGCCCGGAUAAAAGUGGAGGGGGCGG

# Variants of: B1
# experimentNotes: self-cleavage, relative activity (ratio to wild type); higher = more cleavage; co-transcriptional
Recorded self-cleavage determines the label; the label ranges are group 1 (below 0.06), group 2 (0.06 to below 0.2), group 3 (0.2 or more)

variantDescription	label
A17U C21G	group 2
G54C U43A	group 3
A41U C25G	group 2
A36C A40C	group 1
A46G C32G	group 2
G19U G30C	group 1
A7G C21G	group 1
A28C G47U	group 2
C33U U18A	group 3
C15U G13A	group 1
A39C C11G	group 3
A10G C27U	group 2
A28G A38G	group 3
A7G C15A	group 2
A8C C31U	group 1
C15G C52G	group 3
